Test system: Ba/F3 cells expressing L858R/T790M/C797S (EGFR-LTC)
Experimental Details: Growth inhibition (GI50) of Ba/F3 cells expressing L858R/T790M/C797S (EGFR-LTC), Celltiter glo
Assay type: cell-based
Cond: Mus musculus, BaF3, 72 h
Answer each item with its documented GI50.

// worked examples, GI50 included
Molecule: COc1cc(N2CCC(N3CCN(C)CC3)CC2)c(Cl)cc1Nc1ncc(Br)c(Nc2cc(Cl)ccc2N(C)S(C)(=O)=O)n1
Value Type: GI50
Experimental Value: 1 to 25 nM

Molecule: COc1cc(N2CCC(N3CCN(C)CC3)CC2)c(C)cc1Nc1nnc(Cl)c(Nc2cc(Cl)ccc2NS(C)(=O)=O)n1
Value Type: GI50
Experimental Value: 1 to 25 nM

Molecule: COc1cc(N2CCC(N3CCN(C)CC3)CC2)c(C)cc1Nc1ncc(Br)c(Nc2cc(C)ccc2NS(C)(=O)=O)n1
Value Type: GI50
Experimental Value: 25 to 100 nM

Record GI50 for all entries; do not skip any.
1. COc1nc(N2CCC(N3CCN(C)CC3)CC2)ccc1Nc1ncc(Br)c(Nc2ccc(F)cc2NS(C)(=O)=O)n1
2. COc1nc(N2CCN(C3CCN(C)CC3)CC2)c(C(F)(F)F)cc1Nc1ncc(Br)c(Nc2ccc(F)cc2NS(C)(=O)=O)n1
3. COc1nc(N2CCC(N3CCN(C)CC3)CC2)ccc1Nc1ncc(Cl)c(Nc2ccc3nccnc3c2NS(C)(=O)=O)n1
4. CN1CCN(C2CCN(c3ccc(Nc4ncc(Cl)c(N(c5ccc6scnc6c5NS(C)(=O)=O)S(C)(=O)=O)n4)cc3F)CC2)CC1
5. COc1cc(N2CCC(N3CCN(C4CC4)CC3)CC2)c(C)cc1Nc1ncc(Br)c(Nc2ccc(F)cc2NS(C)(=O)=O)n1

output:
1: 500 to 2000 nM; 2: > 10000 nM; 3: 100 to 500 nM; 4: 25 to 100 nM; 5: 100 to 500 nM

I have 3 molecules here; please give me GI50 for each one.
1. Cc1cc(Nc2ncc(Br)c(Nc3cc4c(cc3NS(C)(=O)=O)CCO4)n2)c(Cl)cc1N1CCC(N2CCC(N(C)C)C2)CC1 (stereo not shown)
2. CN1CCN(C2CCN(c3ccc4cc(Nc5ncc(Cl)c(Nc6cc(Cl)c(Cl)cc6NS(C)(=O)=O)n5)ccc4n3)CC2)CC1
3. CN(C)CCCn1cc(Nc2ncc(Cl)c(Nc3cc(Cl)ccc3NS(C)(=O)=O)n2)cn1

output:
1: 25 to 100 nM; 2: 100 to 500 nM; 3: 2000 to 10000 nM

Field: GI50. Fill in for each record below.
1. COc1cc(N2CCC(N3CCN(C)CC3)CC2)c(C)cc1Nc1ncc(Cl)c(N(c2ccc3scnc3c2NS(C)(=O)=O)S(C)(=O)=O)n1
2. CCc1cc(Nc2ncc(Cl)c(Nc3cc(OC)ccc3NS(C)(=O)=O)n2)c(OC)cc1N1CCC(N2CCN(C)CC2)CC1

output:
1: 25 to 100 nM; 2: 25 to 100 nM
